Tgt: GST-MCL-1 (Homo sapiens)
Sequence (Q07820 whole entry): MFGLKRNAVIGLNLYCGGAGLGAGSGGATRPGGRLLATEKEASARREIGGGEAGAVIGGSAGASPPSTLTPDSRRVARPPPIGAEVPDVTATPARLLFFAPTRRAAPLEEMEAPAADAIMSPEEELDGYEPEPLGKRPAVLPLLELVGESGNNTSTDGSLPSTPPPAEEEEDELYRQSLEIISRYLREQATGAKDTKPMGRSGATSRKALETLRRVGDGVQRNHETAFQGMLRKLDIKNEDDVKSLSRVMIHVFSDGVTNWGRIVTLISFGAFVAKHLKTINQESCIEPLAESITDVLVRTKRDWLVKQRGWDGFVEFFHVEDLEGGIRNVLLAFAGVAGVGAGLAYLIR
Test name: TR-FRET MCL-1 binding assay (competition with probe F-Bak)
Stated conditions: without HS; read-out: MCL-1 Binding Ki
Listing of entries alongside the reported pKi.
// scale note: pKi = -log10(conc_M); give the bare number

Sample records with pKi:
INSERT INTO results (smiles_repr, readout_value) VALUES
  ('Cc1c(Cl)c2c(Cl)c(C)c1-c1c(-c3ccc(F)cc3)sc3ncnc(c13)O[C@@H](C(=O)O)Cc1cc(ccc1OCc1ccnc(-c3ccc(O[C@H]4CO[C@H]5[C@@H]4OC[C@H]5O)cc3)n1)OC[C@@H](CN1CCN(C)CC1)O2', 11.70),
  ('COCC(COC)Oc1ccc(-c2nccc(COc3ccc4cc3C[C@H](C(=O)O)Oc3ncnc5sc(-c6ccc(F)cc6)c(c35)-c3c(C)c(Cl)c(c(Cl)c3C)O[C@H](CN3CCN(C)CC3)CO4)n2)cc1', 8.02),
  ('Cc1c(Cl)c2c(Cl)c(C)c1-c1c(-c3ccc(F)cc3)sc3ncnc(c13)O[C@@H](C(=O)O)Cc1cc(ccc1OCc1ccnc(N3CCOCCOCCOCCOCC3)n1)OC[C@@H](CN1CCN(C)CC1)O2', 10.03);

Query molecule follows.
"COCCOCCOCCOc1cccc(COc2ccc3cc2C[C@H](C(=O)O)Oc2ncnc4sc(-c5ccc(F)cc5)c(c24)-c2c(C)c(Cl)c(c(Cl)c2C)O[C@H](CN2CCN(C)CC2)CO3)n1" has a reported pKi of 9.27
